Test system: ACHN renal
Assay: NCI tumour cell line growth inhibition, 48 h
Listing of recorded TGI by entry.
Number only, in µM; omit the unit.

> print(dat)
                     smiles.code  measured.result
1  ClCc1ccccc1Cn1cnc2c(Cl)ncnc21              6.1

Reported TGI for C[n+]1c2ccccc2nc2ccccc21 was 5.5

----------
System: LOX IMVI melanoma
Assay: NCI tumour cell line growth inhibition, 48 h
# if value of TGI reaches 30 µM, tag 1; if it stays below, tag 0

> print(dat)
                                    compound  assigned.class
 1   Cc1[nH]c2ccccc2c1/C=N/NC(=O)c1cccc(I)c1               1
 2           N#CC(C#N)=Cc1ccc(CP(=O)(O)O)cc1               1
 3  C=CC(C)C1(CCCOCc2ccccc2)C(=S)N2CCC3(CC24CCCC14)OCCO3 (stereo not drawn)               1
 4  O=C(c1ccccc1)c1c(C(F)(F)F)n([O-])c2cc(C(F)(F)F)ccc2[n+]1=O               0
 5  O=CN1N=C(c2cccc(Nc3ccnc4cc(Cl)ccc34)c2)CC1c1ccccc1 (stereo not drawn)               0
 6      O=C(c1cccs1)N1CCCN(C(=O)c2cccs2)C1=S               1
 7             N/C(=N\Nc1ccc(Cl)cc1)c1cnccn1               1
 8  O=[N+]([O-])/C=C(\CS(=O)(=O)c1ccccc1)c1ccc2c(c1)OCO2               1
 9  CNC(=O)SCC(NC(=O)CCC(N)C(=O)O)C(=O)NCC(=O)O (stereo not drawn)               1
10                    O=C1C=Cc2c1ccc1ccccc21               1

Would you say CC1(C)C2CCC1C(=O)[C@@]1(C=CC(=O)CC1)C2 (stereo partly drawn) shows TGI at minimum 30 µM?
1

Would you say O=C(Nc1ccccc1-c1nn(CN2CCNCC2)c(=S)n(CN2CCNCC2)c1=O)C(F)(F)F shows TGI at minimum 30 µM?
1

Would you say Cc1[nH]c(N)nc(=S)c1CCC(=O)O shows TGI at minimum 30 µM?
1

----------
Tested on: SK-MEL-28 melanoma
Test: NCI tumour cell line growth inhibition, 48 h
Listing of recorded TGI by entry.

Observe how each entry below is paired with its result.
smiles_code	target_system	measured_result
O=C1C(=O)c2ccccc2C(O)=C1CCCc1ccc(C2CCCCC2)cc1	SK-MEL-28 melanoma	27.2 µM
COc1cc(C2C3=C(CCCC3=O)N(c3ccc(C)cc3)C3=C2C(=O)CCC3)c([N+](=O)[O-])cc1OC	SK-MEL-28 melanoma	> 100 µM
CC(C)(C)NC(=O)/C(=C\Sc1ccccc1)c1ccccc1	SK-MEL-28 melanoma	> 100 µM

Reported TGI for CC(=O)O[C@H]1C(=O)[C@@]2(C)[C@H]([C@H](OC(=O)c3ccccc3)[C@]3(O)C[C@H](OC(=O)[C@H](O)[C@@H](NC(=O)c4ccccc4)c4cccc(N(C)C)c4)C(C)=C1C3(C)C)[C@]1(OC(C)=O)CO[C@@H]1C[C@@H]2O was > 75 µM

Reported TGI for Cc1cc(S(=O)(=O)Nc2nncn2-c2ccc(Cl)cc2)c(S)cc1Cl was > 10 µM

Reported TGI for CCCCc1c2cnccc2c(CCCC)c2c1[nH]c1ccccc12 was 21.7 µM

Reported TGI for CN1CCc2c(sc3ncn(Nc4ccc(Cl)cc4)c(=N)c23)C1 was > 100 µM

Reported TGI for NCCNC(=O)c1cccc2cc3ccccc3nc12 was 9.71 µM

Reported TGI for Nc1nc2cc(CC[C@H]3C[C@@H](n4ccc5c(N)ncnc54)[C@H](O)[C@@H]3O)ccc2cc1Br was 25.4 µM
